assay_overview: qHTS assay for small molecule agonists of the antioxidant response element (ARE) signaling pathway (AID 651741); as to activation: % of control where 0% means no effect
condition: HepG2 ARE-bla reporter, beta-lactamase FRET ratio, 16 h; series mostly up to 96 µM
Records with an inconclusive call do not appear. Active and inactive are the calls of the source. Calls follow the shape of the dose curve; as a rule, active = well fitted activation curve with a large enough effect in the signal ratio; inconclusive = small, poorly fitted or top-dose-only effect, or effect the other way, or a change in a side signal; inactive = flat fitted curve, though single readings scatter; the % refers to the signal ratio.
# output must be one of active, inactive

Would you please look over these solved cases?
O=C(O)C(Br)Br: active
ClC=CCl: inactive
CC(C)(Cl)Cl: inactive
CC(Cl)(Cl)Cl: inactive
CC(C)Br: inactive
CCCCC#N: inactive

Identify the outcome logged in this assay for the compound shown: c1ccc(C2CO2)cc1 (centres undefined)
inactive

----------
assay_overview: Stat Signaling Pathway (AID 446);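 also: ME-180 cervical cancer cells given 40 pM IL-6 alongside compound; SIE-controlled beta-lactamase reporter measured as 460/530 nm FRET emission ratio; % is scaled to controls: 0 for no effect and ±100 for the full control effect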
condition: ME-180 (cervical carcinoma) SIE beta-lactamase reporter, IL-6 stimulated, 5 h; at 7.69 µM (top of the series) unless noted
Records with an inconclusive call do not appear. Calls of active or inactive are those of the source. Calls come from the whole dose curve; as a rule, active = well fitted curve in either direction with a large enough effect (not every such curve was filed as active); inconclusive = small, poorly fitted or top-dose-only effect, or another doubt; inactive = flat fitted curve, though single readings scatter.
assay_readout: activity, negative = inhibition

Use these answered entries as a reference point.
C(=NCCN1CCOCC1)=NC1CCCCC1: 19.2% (inactive)
C[C@@]12CC[C@H]3[C@@H](CC[C@H]4C[C@@H](O)CC[C@]43C)[C@H]1CC[C@@H]2C(=O)C[C@H](O)C(F)(F)F: -6.11% (inactive)
C[C@H](c1ccccc1)N1CCN([C@@H](C)c2ccccc2)CC1: -0.496% (inactive)

Dear colleague, I am looking for the recorded activity, negative = inhibition of the following compound: "O=[As](O)(O)c1ccc(NCc2ccccc2)cc1"
11.2% (inactive)

Which value of activity, negative = inhibition has been reported for "COc1cc([C@@H](O)CN)ccc1O" in the records?
3.87% [at 38 µM] (inactive)

----------
assay_overview: Cell Viability - HUV-EC-C (AID 542);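 also: cells exposed to compound for 40 hours; % is scaled to controls: 0 for no effect and ±100 for the full control effect; nearly all actives have a fitted effect of over 35% in size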
condition: HUV-EC-C endothelial cell viability, qHTS; series mostly up to 92.2 µM
From the text: NIH Chemical Genomics Center [NCGC] NIH Molecular Libraries Screening Centers Network [MLSCN] National Institutes of Environmental Health Sciences [NIEHS] National Toxicology Program [NTP] We have developed a 1536-well cell-based assay for quantitative high throughput screening (qHTS) against a number of cell lines to determine in vitro cytotoxicity of small molecules. […] 8. Detection; Luminescence; Viewlux plate reader […]
Records with an inconclusive call do not appear. Activity calls are given as the source filed them. Calls follow the shape of the dose curve; as a rule, active = well fitted cell-killing curve with a large enough effect; inconclusive = small, poorly fitted or top-dose-only effect, or effect the other way; inactive = flat fitted curve, though single readings scatter.
Choose the fitting class; nothing outside active, inactive is accepted.

Reference set (2 entries):
Cc1ccc(N)c(C)c1: inactive
Cc1ccc(N)cc1C: inactive

Assay outcome for "O=[N+]([O-])c1ccc(Cl)cc1" : what was it?
inactive

Returns: the outcome recorded for "Nc1ccc2ccccc2c1" in this assay.
inactive

Tell me the assay call for C=CCOCC1CO1 (stereo not given) please.
inactive

Please let me know the test result on file for "ClCCOCCCl" .
inactive

Which outcome was assigned to "ClC(Cl)(Cl)C(Cl)(Cl)Cl" in this test?
inactive

Just curious, what result did "Clc1ccc(Cl)c(Cl)c1" get here?
inactive

Please share the test call associated with "Clc1ccccc1" .
inactive

Answer briefly: the call reported for "CCC#N" in this assay.
inactive

Field: outcome | Entry: CCCCC(CC)COC(=O)c1ccc(C(=O)OCC(CC)CCCC)c(C(=O)OCC(CC)CCCC)c1 (stereo not given)
inactive

So what was the verdict on "Cc1cc(C)cc(OP(=O)(Oc2cc(C)cc(C)c2)Oc2cc(C)cc(C)c2)c1" in this test?
inactive

Write down the call the test reported for this compound. Item: "O=[N+]([O-])c1ccc(O)c([N+](=O)[O-])c1"
inactive

Tell me the recorded outcome of this test for "O=c1ccc(=O)[nH][nH]1" .
inactive

Hey, what did the test say about "O=C(Cc1ccccc1)OCc1ccccc1" ?
inactive

Tell me the recorded outcome of this test for "O=[N+]([O-])CCO" .
inactive

Record lookup: outcome of this test for "ClCc1ccccn1" ?
inactive

How was "O=[N+]([O-])c1c(Cl)c(Cl)c(Cl)c(Cl)c1Cl" classified in this test?
inactive

In this assay, the call recorded for "CCN(CC)CCO" was what?
inactive

Entry "ClCC(Cl)CCl" : call = ?
inactive

For this compound, state the assay outcome: "O=S(=O)(O)F"
inactive

Hi, sorry to bother you, what did the test record for "CCCC[N+](=O)[O-]" ?
inactive

----------
assay_overview: qHTS assay for environmental chemicals that activate the Aryl hydrocarbon Receptor (AhR) signaling pathway (AID 651777); also: % of control where 0% means no effect; nearly all actives have a fitted effect of over 15% in size
condition: 1A2-DRE human hepatoma cells, luciferase, 24 h; stronger effect = higher value
Inconclusive results are not listed.
assay_readout: activation (%)
Reply numerically in %, unit not repeated.

For the molecule shown here, "O=[N+]([O-])c1cccc2c([N+](=O)[O-])cccc12" , give the reported activation.
0.19

----------
assay_overview: Cell Viability - LYMP2-024 (AID 988);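 also: cells exposed to compound for 24 hr at 37 °C; plate controls were DMSO only for no effect and 92 µM tetraoctylammonium bromide for full effect; nearly all actives have a fitted effect of over 60% in size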
condition: LYMP2-024 lymphoblastoid cell viability; series mostly up to 92.2 µM
Inconclusive results are not listed. Active and inactive are the calls of the source. The call rests on the fitted dose curve; in most records, active means well fitted cell-killing curve with a large enough effect; inconclusive means small, poorly fitted or top-dose-only effect; inactive means flat fitted curve, though single readings scatter.
Select the matching outcome among active, inactive

Worked cases, answers included:
O=C(O)C(Cl)(Cl)Br: inactive
O=C(O)CBr: inactive
CCC(Cl)[N+](=O)[O-] (stereo unspecified): inactive
ClC(Cl)c1ccccc1: inactive

Entry "Nc1cc(Cl)ccc1O" : call = ?
inactive

----------
test_system: Nuclear receptor subfamily 1 group I member 2 (Rattus norvegicus)
assay_overview: qHTS assay for small molecule activators of the rat pregnane X receptor (rPXR) signaling pathway (AID 651751); also: 0% is about no effect
condition: rPXR reporter cells, luciferase (One-Glo), 24 h
Form field: max response (one value per entry).
Numeric only. Scale: %

Study these solved cases before continuing.
O=C(O)c1cccc(Cl)c1: 0.516
O=[N+]([O-])c1ccccc1-c1ccccc1: 0.722

Now look at this entry.
What max response value was documented for this compound, "Oc1ccc(Cl)c(Cl)c1Cl" ?
8.33

----------
Attribute: Potency
System: HIV-1 nucleocapsid protein NCp7 (binding to TG oligonucleotide)
assay_overview: HIV Nucleocapsid (AID 346);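 also: potency is read from the fitted curve at half-maximal effect; potency is for inhibitors that block NC binding and lower polarization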
condition: HIV-1 NC / fluorescein-TGTGTGTG probe, fluorescence polarization
Activity calls are given as the source filed them. The rule behind the calls is not given here.

Example molecules with recorded Potency:
c1ccc(CNc2ncnc3ccc(-c4ccoc4)cc23)cc1: > 20 µM (inactive)
COCCn1c(=O)c(CCc2ccccc2)nc2cnc(Oc3cccc(Cl)c3)nc21: > 20 µM (inactive)
COc1cccc(-c2nc(NCCc3c[nH]c4ccc(OC)cc34)c3ccccc3n2)c1: > 20 µM (inactive)
COc1ccc(-n2c(=O)c(C)nc3cnc(N4CCOCC4)nc32)cc1: > 20 µM (inactive)
COCC(=O)N1CCC[C@@]2(CCN(C(=O)Nc3cccc(F)c3)C2)C1: > 20 µM (inactive)
CC(C)CN1CC2(CCN(S(=O)(=O)c3ccccc3)CC2)C1: > 20 µM (inactive)

Requested field: Potency. Item: "Cc1ccccc1-c1cncnc1NCc1cccnc1"
> 20 µM (inactive)

Suppose we examine the molecule "FC(F)(F)c1ccccc1-c1nccc(NCc2ccccc2)n1" ; what Potency value has been reported?
> 20 µM (inactive)

----------
max response overview
assay_overview: qHTS assay for small molecule antagonists of peroxisome proliferator-activated receptor delta signaling (AID 588535);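 also: cells co-treated with a PPAR-delta agonist as stimulator during compound exposure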
condition: HEK293T PPARd-UAS-bla, beta-lactamase FRET ratio, 18 h; 460 nm channel
Results filed as inconclusive are left out.
Value expressed in %; do not type the unit.

These recorded examples may help you get a feel for the data.
CC(C)C#N: -11.5
C=C(C)CCl: 2.33
CC1CC(=O)O1 (stereo unspecified): 2.28
Cc1cc(N=Nc2ccccc2C)ccc1N: -21.5
O=[N+]([O-])c1cccc2c([N+](=O)[O-])cccc12: -9.5

Can you look up the measured max response of "Cc1ccc(N)c(C)c1" for me?
14.7

Dear colleague, I am looking for the recorded max response of the following molecule: "C/C=C/CC#N"
-4.54

Returns the measured max response for the input molecule. Input: "CCOC(=O)CBr"
-11.7

// max response lookup, key: "CCCCC#N"
-3.23

# lookup: max response of "BrCCc1ccccc1"
-20.6

# max response lookup, item "OC[P+](CO)(CO)CO"
-16.4

What max response value was documented for this molecule, Cc1coc2c1CCC(C)C2 (stereo unspecified) ?
-2.44

# query: max response of entry "N#CC(Br)Br"
-6.9

Request the reported max response associated with "CCCCCCCCCCCCCl"
10.4

Which max response reading was recorded for the molecule "CC(C)OS(C)(=O)=O" ?
-20

Find the recorded max response belonging to "CCOS(C)(=O)=O" and report it.
-10.7

Could you tell me which max response is on file for CC(C#N)CCC#N (stereo unspecified) ?
27.1

// lookup max response for "ClCC(Cl)CCl"
17.7

I am curious: what max response value has been reported for "CCN(CC)CCO" ?
24

max response for "Clc1ccccc1" ?
-34.6

Quick check: max response of "O=S(=O)(O)F" ?
7.1

----------
assay_overview: Cell Viability - NIH 3T3 (AID 541);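 also: cells exposed to compound for 40 hours; nearly all actives have a fitted effect of over 25% in size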
condition: NIH 3T3 cell viability, qHTS
Results filed as inconclusive are left out. The source made the active and inactive calls. Calls follow the shape of the dose curve; as a rule, active = well fitted cell-killing curve with a large enough effect; inconclusive = small, poorly fitted or top-dose-only effect; inactive = flat fitted curve, though single readings scatter.
Could you please pick one outcome from this set? 1 (yes) = active, 0 (no) = inactive

Completed entries (count: 6):
CCOC(=O)CBr: 0 (no)
Cc1ccc(N)c(C)c1: 0 (no)
CN(C)c1ccccc1: 0 (no)
Nc1ccc([N+](=O)[O-])cc1[N+](=O)[O-]: 1 (yes)
Clc1cccc(Cl)c1: 0 (no)
c1ccc(C2CO2)cc1 (stereo not given): 0 (no)

Field: outcome | Entry: "CCCC[N+](=O)[O-]"
0 (no)

Can you look up the reported call for "Nc1ccc2ccccc2c1" for me?
0 (no)

I'd appreciate the recorded outcome for "Oc1cccc(Cl)c1" from this test.
0 (no)

Record request — test call for CC(C)CC(C)N (stereo not given)
0 (no)
